Below, each entry is listed with its recorded Cytotoxicity.
Tested on: AML-12 cell lines
Experiment: Cytotoxicity MTT assay on AML-12 cell lines
Assay type: cell-based
Conditions: AML-12 cell line, MTT, 24 hrs, test material 2-100 μg/ml
quantity measured: Cytotoxicity

structure=O=[N+]([O-])c1ccc(C=NNc2nc3ccc(OC(F)(F)F)cc3s2)s1 quantity_measured=Cytotoxicity val=">100 µg/mL"
structure=O=C(Nc1nc2ccc(NC(=O)c3ccc([N+](=O)[O-])o3)cc2s1)c1cnccn1 quantity_measured=Cytotoxicity val=">100 µg/mL"
structure=O=C(Nc1nc2ccc(NC(=O)c3ccc([N+](=O)[O-])o3)cc2s1)c1ccccc1 quantity_measured=Cytotoxicity val=">100 µg/mL"

Numbers sourced from patent US9949970B2.
